# Tested system: T1, CD123 (Homo sapiens (Human), UniProt P26951 19-305, limits assumed)
# T1 construct: The CD123 construct used in the ELISA is not described; also called CD123-Signal
# T1 sequence: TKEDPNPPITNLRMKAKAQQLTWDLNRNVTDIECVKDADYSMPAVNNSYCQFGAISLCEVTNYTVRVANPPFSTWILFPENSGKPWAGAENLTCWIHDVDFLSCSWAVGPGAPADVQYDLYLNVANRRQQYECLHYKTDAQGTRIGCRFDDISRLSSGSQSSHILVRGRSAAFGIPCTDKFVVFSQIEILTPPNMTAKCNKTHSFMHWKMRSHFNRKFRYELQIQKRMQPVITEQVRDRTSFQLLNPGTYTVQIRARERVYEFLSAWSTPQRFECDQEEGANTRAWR
# Measurement description: ELISA
# Parameters: unit not given here
Reported property: ELISA_avg
I'd appreciate a reply containing only the number, no unit.

Measured ELISA_avg, D domain of SEQ ID NO: 489 (designed binder) MGSWYWFKEELAFIKWELEALGGSEAELALFEEDIAYFEEMLQEYKGKGNPEVEALRKEAAAIRDELQAYRHN : 9.4

Measured ELISA_avg, D domain of SEQ ID NO: 657 (designed binder) MGSWHEFWQRLEAIEGRLWALGGSEAELADFESLIADFEEQLQEYKGKGNPEVEALMAEAEAIDNELRAYRHN : 7

Measured ELISA_avg, D domain of SEQ ID NO: 648 (designed binder) MGSWEEFHMRLIAIDERLWALGGSEAELAGFEESIAYFESQLQDYKGKGNPEVEALDYEAHAIWRELYAYRHN : 3.9

Measured ELISA_avg, D domain of SEQ ID NO: 507 (designed binder) MGSWNWFKEDLAIIKMDLEALGGSEAELAWFEHNIAGFEFELQGYKGKGNPEVEALRKEAAAIRDELQAYRHN : 3.1

Measured ELISA_avg, D domain of SEQ ID NO: 536 (designed binder) MGSWHWFKIVLADIKDGLEALGGSEAELAYFETTIADFEMDLHHYKGKGNPEVEALRKEAAAIRDELQAYRHN : 3.5
